TEST: Pharmacokinetic study after oral administration
Format: in vivo, BALB/c mice
SETUP CONDITIONS: female, BALB/c, mouse, plasma, 30 mg/kg
METRIC: Cmax (ng/mL)

MOLECULE | METRIC | TEST VALUE
Oc1ncnc2[nH]ncc12 [ALO, 1H-pyrazolo[3,4-d]pyrimidine-4(2H)-one] | Cmax | 7010

====

TEST: Pharmacokinetic study after oral administration
Type: in vivo, BALB/c mice
SETUP CONDITIONS: female, BALB/c, mouse, plasma, 30 mg/kg

MOLECULE | AUC(0-t)
Oc1ncnc2[nH]ncc12 [ALO, 1H-pyrazolo[3,4-d]pyrimidine-4(2H)-one] | 36900 ng·h/mL

====

TEST: Shake flask solubility in pH 6.8 phosphate buffer
Type: physicochemical

COMPOUND | UNIT SYMBOL | solubility at 4 h
Oc1ncnc2[nH]ncc12 [ALO, 1H-pyrazolo[3,4-d]pyrimidine-4(2H)-one] | µg/mL | 687
